These data points were gathered from a melting point compilation (Tetko et al.; mined from patent text by program, amines drawn as free bases though some values may be those of a salt).

measured.metric: melting point

Field: example entries. Status: answers known.
CN(C)C(=O)C(CCO)C1CCc2[nH]c3ccccc3c21 (centres undefined): 135 to 137 °C
O=C(CNC(=O)c1cc([N+](=O)[O-])ccc1F)OCc1ccccc1: 56 to 58 °C
CC(C)Oc1ccc(Cc2ccc(N)cc2)cc1: 92 to 93 °C

API: the following record is the query input.
Consider the compound O=C(Nc1ccc(O)cc1)C1CCCCC12OCCO2 (centres undefined) and give its measured melting point.
173 to 174 °C

----------
measured.metric: melting point (°C)

CC1=NN(c2ccc(C(=O)O)cc2)C(=O)C1=CNc1ccccc1C(C)C: 270
COc1ccc(-c2c[nH]c(=O)nc2C)cc1: 210

----------
measured.metric: melting point

Reference set, count: 7
O=Cc1cc2ccc3c4ccccc4ccc3c2s1: 209 to 210 °C
COc1ccc(CSc2cccc(C(=O)Nc3ccc(C#N)cc3)c2)cc1: 167 to 169 °C
C#CC1(O)CCN(C(C)=O)CC1: 132 to 134 °C
CSc1nc(-c2ccc(S(C)(=O)=O)cc2)n(-c2ccc(C(C)C)cc2)c(=O)c1C#N: 211 to 212 °C
COc1cc(OC)cc(N2CCN(C(=O)Nc3cc(-c4cccnc4)nc4ccccc34)CC2)c1: 95 to 96 °C
CCOCn1cc(C(C)=O)c2c(OC)cc(Br)nc21: 114 to 116 °C
COc1ccc(C(=O)C(NC(=O)CCCCCBr)c2ccc(OC)cc2)cc1 (stereo not drawn): 93 °C

What melting point value was documented for this compound, "O=C(CCC1OC=CO1)c1ccc2c(c1)OCO2" ?
94 to 96 °C

----------
measured.metric: melting point (°C)

Cc1nc(-c2ccc(Cl)cc2)sc1C(=O)NCc1ccc(OC(C)(C)C(=O)O)cc1: 131

1. CCCCCCCCCCCCCCCCCC(=O)N[C@@H](C)C(=O)OC
2. COc1ccc(OC)c2c1CC(O)CC2O (configuration not stated)
Determine, for 1 and 2 , which has the greater value of melting point. Answer by stating the label of the chosen item.
2

----------
measured.metric: melting point

Below, 5 molecules whose answers are already recorded.
CC(C)Cn1c(CNC(=O)OC(C)(C)C)c(-c2ccc(Cl)cc2)c2cc(O)ccc2c1=O: 220 to 221 °C
CC(=Cc1ccc(Oc2ccc(Cl)cc2)cc1)[N+](=O)[O-]: 69 to 71 °C
O=C(Nc1cc(C(F)(F)F)ccc1N1CCc2ccccc21)c1ccccc1F: 127 to 130 °C
CCCCCCCCCCC1CN(C)C(=O)N(O)C1 (stereo unspecified): 63 to 64.5 °C
CCc1nc(C)c(/C=C(\NC(=O)c2ccc(C(=O)NCc3cccc(O)c3)cc2Cl)C(=O)OC)s1: > 200 °C

// below: melting point requested for another molecule
Report melting point for CCOC(=O)C1(C(=O)N(Cc2ccccc2)Cc2ccccc2)CC(=O)N(C(C)c2ccccc2)C1 (stereo unspecified) please.
135 to 137 °C

----------
measured.metric: melting point

Sample records with melting point:
COc1c(Cl)cc(C(=O)Cl)cc1Cl: 153 to 157 °C
C#CCOc1cc2ccccc2cc1COC(=O)C1CC1: 58 to 60 °C
Fc1ccc(/C=C/c2nc(COc3ccc(CCCCn4ccnn4)cc3)co2)cc1: 124 to 125 °C
Cc1c(F)c(F)cc2c(=O)c(C(=O)O)cn(-c3ccc(F)c(O)c3)c12: > 280 °C
COc1cc(C(=O)NS(=O)(=O)c2ccccc2)cnc1C(=O)O: 176 to 178 °C
C=CCNc1c(NC(CC)CC)cc(C)nc1Oc1c(C)cc(C)cc1C: 86 to 88 °C
O=C(CN1CCc2c([nH]c3ccccc23)C1c1ccccc1)OCc1ccccc1 (stereo unspecified): 131 to 132 °C
O=C(Cc1ccncc1)[N+]1([O-])CCC(=C2c3ccc(Cl)cc3CCc3cccnc32)CC1 (stereo unspecified): 128 to 130 °C
Cc1nc(-c2ccc([N+](=O)[O-])cc2)c(-c2ccc([N+](=O)[O-])cc2)[nH]1: 230 to 232 °C
CC(C)(C)c1cc2ccccc2[nH]1: 71 to 72 °C

Next, consider the following molecule.
Please look up its melting point: "Ic1ccc(N2CCCC2)cc1"
99.7 to 99.8 °C
